- target-or-test-system: aggrecanase-1 (Homo sapiens)
- Sequence (O75173 213-837, species assumed): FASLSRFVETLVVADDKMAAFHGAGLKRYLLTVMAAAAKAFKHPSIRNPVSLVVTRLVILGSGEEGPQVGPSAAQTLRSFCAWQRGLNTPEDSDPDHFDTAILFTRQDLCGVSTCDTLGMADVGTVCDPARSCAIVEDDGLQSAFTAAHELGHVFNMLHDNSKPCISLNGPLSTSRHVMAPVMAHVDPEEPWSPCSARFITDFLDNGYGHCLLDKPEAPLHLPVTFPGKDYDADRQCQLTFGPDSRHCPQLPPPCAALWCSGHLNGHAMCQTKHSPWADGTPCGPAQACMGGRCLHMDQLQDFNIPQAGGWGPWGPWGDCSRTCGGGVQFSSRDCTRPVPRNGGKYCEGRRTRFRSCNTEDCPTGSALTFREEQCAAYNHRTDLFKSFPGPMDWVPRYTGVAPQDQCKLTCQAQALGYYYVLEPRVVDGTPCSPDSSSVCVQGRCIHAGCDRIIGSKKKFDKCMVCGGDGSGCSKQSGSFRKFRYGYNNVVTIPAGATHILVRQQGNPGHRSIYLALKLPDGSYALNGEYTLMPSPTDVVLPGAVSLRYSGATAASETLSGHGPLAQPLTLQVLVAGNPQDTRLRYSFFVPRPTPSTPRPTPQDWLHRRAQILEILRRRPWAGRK
- assay-procedure: Aggrecanase-1 inhibitory action (Particle Assay, GAG release from aggrecan-containing polyacrylamide particles)
- Assay type: biochemical
- condition: aggrecanase-1 inhibitory action; read-out: IC50 AG1 (Experimental Example 1)
- Description: Particle Assay was used for determination of aggrecanase activity. The enzyme and substrate were diluted with Tris-HCl buffer, and test compounds were diluted with dimethyl sulfoxide (DMSO). […] After incubation, the supernatant was transferred to another plate, and mixed with 1,9-dimethylmethylene blue. The absorbence at 595 nm was measured to quantify the amount of glycosaminoglycan (GAG) released in the reaction supernatant. […]
pIC50: −log10 of the molar value.
observed-property: pIC50

compound: Nc1cccc(C2CC2(NS(=O)(=O)c2ccc(-c3ccc(Cl)cc3)s2)C(=O)O)c1 (stereo not shown)
result: > 7.00
--
compound: CCCC#Cc1ccc(S(=O)(=O)N[C@@]2(C(=O)O)C[C@@H]2c2ccccc2)s1
result: ≤ 5.00
--
compound: CN(C)CCOc1ccccc1C1CC1(NS(=O)(=O)c1ccc(-c2ccc(Cl)cc2)s1)C(=O)O (stereo not shown)
result: ≤ 6.00
--
compound: CC(C)(O)C#Cc1ccc(S(=O)(=O)N[C@@]2(C(=O)O)C[C@@H]2c2ccccc2)s1
result: ≤ 6.00
